These data points were gathered from patent US20260151496A1.

target: T1, human HER2 His6 protein, extracellular domain (NCBI NP_004439.2, Met 1-Thr 652), C-terminal polyhistidine tag (human, UniProt P04626 23-652); experiment: ForteBio OCTET R2, antibody captured on Protein A sensor, HER2 protein in solution, 25 °C
T1 construct: range 1-652; The stated range includes Met 1; also called HER2-ECD; human HER2-ECD
observedProperty: kon (M⁻¹ s⁻¹)
State the answer as a number, implicitly in M⁻¹ s⁻¹.

[ask] Entry under review: HER2 VHH-FC1 fusion protein 2-F03 (Fc fusion, 25; also called 2-F03-FC1; chimeric nanobody 2-F03) EVQLVESGGGLVQPGGSLRLSCAASGLTFRRYHMSWYRQAPGKERELVAVISDTGTTNYAESVKGRFTISRDNSRSTVFLQLNSLKPDDTAVYYCNGRWPAVAADWWGQGTQVTVSSEPKSSDKTHTCPPCPAPEFEGGPSVFLFPPKPKDTLMISRTPEVTCVVVDVSHEDPEVKFNWYVDGVEVHNAKTKPREEQYNSTYRVVSVLTVLHQDWLNGKEYKCKVSNKALPASIEKTISKAKGQPREPQVYTLPPSRDELTKNQVSLTCLVKGFYPSDIAVEWESNGQPENNYKTTPPVLDSDGSFFLYSKLTVDKSRWQQGNVFSCSVMHEALHNHYTQKSLSLSPGK . Reported kon?
[reply] 466000
